Value source: ChEMBL document CHEMBL1145987

Target chain: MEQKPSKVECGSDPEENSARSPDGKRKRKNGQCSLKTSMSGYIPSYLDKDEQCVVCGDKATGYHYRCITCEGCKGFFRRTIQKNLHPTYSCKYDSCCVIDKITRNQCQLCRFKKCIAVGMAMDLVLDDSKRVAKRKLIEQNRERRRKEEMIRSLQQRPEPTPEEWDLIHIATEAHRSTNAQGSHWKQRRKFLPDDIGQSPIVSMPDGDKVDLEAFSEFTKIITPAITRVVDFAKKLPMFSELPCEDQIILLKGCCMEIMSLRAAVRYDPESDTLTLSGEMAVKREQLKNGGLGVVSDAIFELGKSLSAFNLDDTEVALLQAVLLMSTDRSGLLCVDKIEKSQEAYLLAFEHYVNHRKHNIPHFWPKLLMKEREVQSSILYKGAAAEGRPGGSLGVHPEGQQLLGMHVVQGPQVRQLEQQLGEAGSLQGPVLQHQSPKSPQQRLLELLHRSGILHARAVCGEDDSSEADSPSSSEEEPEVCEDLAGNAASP
reported_property: pKd
Remember the convention: pKd equals -log10 of concentration in molar.

Data request: Recorded pKd for `Cc1cc(CCC(=O)O)cc(C)c1Cc1ccc(O)c(C(C)C)c1` , please?
Data returned: 9.16

Data request: Same question, `Cc1cc(C[C@H](N)C(=O)O)cc(C)c1Cc1ccc(O)c(C(C)C)c1` this time
Data returned: 8.69

Data request: Another compound: `Cc1cc(OCC(=O)O)cc(C)c1Oc1ccc(O)c(C(C)C)c1`
Data returned: 8.62

Data request: Then this compound: `Cc1cc(C[C@H](N)C(=O)O)cc(C)c1Oc1ccc(O)c(C(C)C)c1`
Data returned: 8.07
